Each entry below carries its reported koff.
- experimental system: T1, human folate receptor alpha (hFRα), recombinant protein (human, UniProt P15328 25-233)
- T1 construct: Bought recombinant proteins (His-tagged, or biotinylated via Avi-tag, e.g. AcroBiosystems FO1-H82E2, F01-H52H1); also called hFOLR1; huFOLR1
- T1 sequence (P15328 25-233 limits assumed): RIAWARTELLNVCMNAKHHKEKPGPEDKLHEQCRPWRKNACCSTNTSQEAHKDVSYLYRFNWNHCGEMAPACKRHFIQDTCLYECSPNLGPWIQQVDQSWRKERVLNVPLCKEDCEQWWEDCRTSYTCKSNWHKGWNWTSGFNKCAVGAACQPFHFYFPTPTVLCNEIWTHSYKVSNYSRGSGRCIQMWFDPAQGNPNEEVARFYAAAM
- experiment: BLI, biotinylated FOLR1 on streptavidin biosensors
# unit: s⁻¹ | format: bare number

binder	koff [s⁻¹]
2HFO9(I51V)-NT (VHH, not shown: neurotensin tridecapeptide (NT) and any linker or tags of the fusion) VHH: QVQLQESGGGLVQAGGSLRLSCAASGSGFSGMIMGWYRQAPGKQRELVATVTSGGTTNYADSVKGRFTISRDNAKNTVLLQMNSLKPEDTAVYYCNAHFPGIYWGKGTQVTVSS	0.0205

// moving on: another record for koff
Look up koff for this binder: 2HFO9 (I51V,G54H)-NT (VHH, not shown: neurotensin tridecapeptide (NT) and any linker or tags of the fusion) VHH: QVQLQESGGGLVQAGGSLRLSCAASGSGFSGMIMGWYRQAPGKQRELVATVTSHGTTNYADSVKGRFTISRDNAKNTVLLQMNSLKPEDTAVYYCNAHFPGIYWGKGTQVTVSS
0.0145
